Where do these numbers come from? They come from patent US6759384.

# target: human factor Xa (Enzyme Research Laboratories, Inc.) (human, UniProt P00742 41-179; P00742 235-488, limits assumed)
# Sequence (P00742 41-179 limits assumed, chain 1 of 2): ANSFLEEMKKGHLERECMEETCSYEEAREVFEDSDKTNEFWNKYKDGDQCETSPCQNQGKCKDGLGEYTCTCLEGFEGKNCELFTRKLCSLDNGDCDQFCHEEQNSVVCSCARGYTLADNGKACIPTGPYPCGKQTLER
# Sequence (P00742 235-488 limits assumed, chain 2 of 2): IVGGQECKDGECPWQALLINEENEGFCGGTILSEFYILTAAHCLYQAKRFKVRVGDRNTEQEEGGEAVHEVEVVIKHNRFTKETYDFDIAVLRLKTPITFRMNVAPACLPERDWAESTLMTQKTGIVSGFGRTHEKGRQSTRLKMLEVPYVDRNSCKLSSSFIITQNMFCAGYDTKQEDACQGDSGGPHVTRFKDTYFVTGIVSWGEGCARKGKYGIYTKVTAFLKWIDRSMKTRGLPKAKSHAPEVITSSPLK
# assay comment: chromogenic FXa inhibition
Starred links: 1 amine or outer side, 2 acyl side, 3 side chain; linkers in the order of their positions; H or OH if unused. Non-standard residues stand in square brackets, D forms with d. Primed or numbered codes have the meaning given here. No end group written: not given here. *: point of attachment. Dab(Nγ-C3H7N)″ = 2,4-diaminobutyric acid with dimethylamidinium (N,N-dimethylformamidinium) on gamma-N, C[N+](C)=CNCC[C@H](N[*:1])C(=O)[*:2]; (iBu)Tyr = N-isobutyl-L-tyrosine, CC(C)CN([C@@H](Cc1ccc(O[*:3])cc1)C(=O)[*:2])[*:1]; Chg = N[C@H](C(=O)O)C1CCCCC1; Nle = CCCC[C@H](N)C(=O)O; Pth = not defined here; Tfa = O=C(C(F)(F)F)*; For = O=C*
measured attribute: Ki

Study these solved cases before continuing.
* XIRLP (N-term Ac; N-(Et-CH═C(CH3)-CH2) on Y1; C-term NH2) [Ac-(Et-CH═C(CH3)-CH2)Y-I-R-L-P-NH2] | < 100 µM
* {N‑morpholinyl‑CO}-FIRLP-NH2 [N-morpholinyl-CO-F-I-R-L-P-NH2] | < 100 µM
* For-YIRLP-NH2 [For-Y-I-R-L-P-NH2] | < 100 µM
* Ac-GY[Nle]RL-NH2 (SMILES CCCC[C@H](NC(=O)[C@H](Cc1ccc(O)cc1)NC(=O)CNC(C)=O)C(=O)N[C@@H](CCCNC(=N)N)C(=O)N[C@@H](CC(C)C)C(N)=O) [Ac-G-Y-Nle-R-L-NH2] | < 100 µM
* XIRLP (N-term Ac; N-(Et-CH═C(CH3)-CH2) on Y1; Y1=Y(SO3H); C-term NH2) [Ac-(Et-CH═C(CH3)-CH2)Y(SO3H)-I-R-L-P-NH2] | < 100 µM

The binder identified as YIREFSDY-NH2 [Y-I-R-E-F-S-D-Y-NH2] registered its Ki at < 100 µM

GET /value?item= Ac-[(iBu)Tyr]I[Dab(Nγ-C3H7N)″]LP-NH2 [Ac-(iBu)Y-I-Dab(N^γ-C3H7N)-L-P-NH2] &field=Ki returns < 100 µM

get_value(item= Tfa-Y[Chg]RLP-NH2 [Tfa-Y-Chg-R-L-P-NH2] , readout=Ki) returns < 100 µM

Ac-EYIRLPK-NH2 (also: cyclisation unknown (underlining lost), may be cyclic; underlining lost) [Ac-E-Y-I-R-L-P-K-NH2] has a reported Ki of < 100 µM

// Ki value for XIRLP (Y1=Y(3,5-I); C-term NH2) [Y(3,5-I)-I-R-L-P-NH2] : < 100 µM

Pth-YIRLP-NH2 (reading uncertain; also: printed as Pth-Y-I-R-L-P-NH2) [Pth-Y-I-R-L-P-NH2] yielded Ki of < 100 µM

Consider XIRLP (N-(2-Me-nBu) on Y1; C-term NH2) [(2-Me-nBu)Y-I-R-L-P-NH2] . Its measured Ki is < 100 µM

# binder XIRLP (N-(2-Me-nPentyl) on Y1; C-term NH2) [(2-Me-nPentyl)Y-I-R-L-P-NH2] ; its Ki = < 100 µM

# Ki (binder: YIRLP-NH2 [Y-I-R-L-P-NH2] ) is < 100 µM
